Biological target: T1, NPR-B (natriuretic peptide receptor B), murine, expressed endogenously on NIH3T3 cells (murine, UniProt Q6VVW5 17-1047)
T1 sequence (looked up): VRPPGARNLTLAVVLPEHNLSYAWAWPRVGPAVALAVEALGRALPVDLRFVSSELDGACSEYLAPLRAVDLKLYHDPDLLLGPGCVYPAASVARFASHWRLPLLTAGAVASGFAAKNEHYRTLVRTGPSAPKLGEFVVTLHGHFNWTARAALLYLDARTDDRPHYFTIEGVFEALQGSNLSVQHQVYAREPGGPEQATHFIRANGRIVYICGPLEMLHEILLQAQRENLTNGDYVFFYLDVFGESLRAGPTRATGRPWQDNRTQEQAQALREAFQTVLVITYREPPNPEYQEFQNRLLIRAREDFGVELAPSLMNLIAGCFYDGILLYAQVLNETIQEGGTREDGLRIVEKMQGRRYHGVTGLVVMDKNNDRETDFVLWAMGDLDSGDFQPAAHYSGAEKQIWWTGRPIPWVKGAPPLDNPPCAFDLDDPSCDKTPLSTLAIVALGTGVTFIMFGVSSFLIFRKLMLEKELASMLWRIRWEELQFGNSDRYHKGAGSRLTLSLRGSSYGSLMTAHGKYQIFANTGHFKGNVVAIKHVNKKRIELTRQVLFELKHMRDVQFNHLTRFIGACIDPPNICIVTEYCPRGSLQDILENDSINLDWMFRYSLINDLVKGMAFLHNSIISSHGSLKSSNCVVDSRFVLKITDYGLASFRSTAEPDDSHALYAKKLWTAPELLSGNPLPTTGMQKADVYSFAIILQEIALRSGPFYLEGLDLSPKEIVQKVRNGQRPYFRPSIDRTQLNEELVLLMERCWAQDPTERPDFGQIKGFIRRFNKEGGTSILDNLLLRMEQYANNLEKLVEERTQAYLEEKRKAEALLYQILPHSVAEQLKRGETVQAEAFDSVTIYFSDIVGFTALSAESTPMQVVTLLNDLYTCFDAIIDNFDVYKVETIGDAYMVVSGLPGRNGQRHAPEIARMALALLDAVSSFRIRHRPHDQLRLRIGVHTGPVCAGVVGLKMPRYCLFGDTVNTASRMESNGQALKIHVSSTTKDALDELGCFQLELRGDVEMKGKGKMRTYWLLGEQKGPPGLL
Assay: cell-based or functional assay
Where no end group is shown, it is not given here.
MEASURED_QUANTITY: cGMP response rel. to 1 uM CNP22; 10 nM peptide, NIH3T3 cells

Asked: # lookup: cGMP response rel. to 1 uM CNP22; 10 nM peptide, NIH3T3 cells of GVPQVSTSTGANQQGLSRGCFGLKLDRIGSMSGLGC [GVPQVSTSTGANQQ-CNP22, K4R (HSA fragment)]
Given back: 3 rel. to 1 uM CNP22 (100)

Asked: # lookup: cGMP response rel. to 1 uM CNP22; 10 nM peptide, NIH3T3 cells of PGQEHPNARKYKGANKKGLSKGCFGLKLDRIGSMSGLGC (ends and bridges not checked; cysteine pairing not given here) [PGQEHPNARKYKGANKK-CNP22 (Pro-Gly-CNP37)]
Given back: 49 rel. to 1 uM CNP22 (100)

Asked: # lookup: cGMP response rel. to 1 uM CNP22; 10 nM peptide, NIH3T3 cells of GANSSGLSRGCFGLKLDRIGSMSGLGC [GANSS-CNP22, K4R]
Given back: 27 rel. to 1 uM CNP22 (100)

Asked: # lookup: cGMP response rel. to 1 uM CNP22; 10 nM peptide, NIH3T3 cells of CNP53 (peptide) peptide: DLRVDTKSRAAWARLLQEHPNARKYKGANKKGLSKGCFGLKLDRIGSMSGLGC
Given back: 61 rel. to 1 uM CNP22 (100)

Asked: # lookup: cGMP response rel. to 1 uM CNP22; 10 nM peptide, NIH3T3 cells of ERGLSRGCFGLKLDRIGSMSGLGC [ER-CNP22, K4R]
Given back: 38 rel. to 1 uM CNP22 (100)

Asked: # lookup: cGMP response rel. to 1 uM CNP22; 10 nM peptide, NIH3T3 cells of PGHKSEVAHRFKGANKKGLSKGCFGLKLDRIGSMSGLGC [PGHKSEVAHRFKGANKK-CNP22 (Pro-HSA-CNP27)]
Given back: 32 rel. to 1 uM CNP22 (100)
